// provenance: patent US20220025021A1

Measured Target: HIV-1 Env of pseudovirus Du172.17 (HIV-1)
Assay Summary: cell-based or functional assay
Measured neutralization IC50 accompanies every entry in the list below.
Reply numerically in µg/mL, unit not repeated.

[
  {
    "Binder": "MS-72 (antibody, V domains shown) VH: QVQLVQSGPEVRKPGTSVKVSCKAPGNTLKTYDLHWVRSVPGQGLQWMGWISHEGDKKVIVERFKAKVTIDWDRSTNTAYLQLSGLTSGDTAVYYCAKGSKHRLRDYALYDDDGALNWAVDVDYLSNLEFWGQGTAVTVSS VL: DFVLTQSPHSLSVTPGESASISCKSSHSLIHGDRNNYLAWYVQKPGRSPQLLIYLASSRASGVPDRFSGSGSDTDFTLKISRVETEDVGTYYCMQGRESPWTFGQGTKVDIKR",
    "neutralization IC50 / µg/mL": 1.75
  },
  {
    "Binder": "MS-78 (antibody, V domains shown) VH: QVQLVQSGPEVRKPGTSVKVSCKAPGNTLKTYDLHWVRSVPGQGLEWMGWISHEGDKKVIVERFKAKVTIDWDRSTNTAYLQLSGLTSGDTAVYYCAKGSKHRLRDYALYDDDGALNWAVDVDYLSNLEFWGQGTAVTVSS VL: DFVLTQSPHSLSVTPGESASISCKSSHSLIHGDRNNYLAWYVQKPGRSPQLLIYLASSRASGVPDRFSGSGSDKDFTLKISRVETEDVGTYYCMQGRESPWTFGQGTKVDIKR",
    "neutralization IC50 / µg/mL": 1.71
  }
]

Proceed to the following item.
Fill in the blank: the reported neutralization IC50 of MS-83 (antibody, V domains shown) VH: QVQLVQSGPEVRKPGTSVKVSCKAPGNTLKTYDLHWVRSVPGQGLQWMGWISHEGDKKVIVERFKAKVTIDWDRSTNTAYLQLSGLTSGDTAVYYCAKGSKHRLRDYALYDDEGALNWAVDVDYLSNLEFWGQGTAVTVSS VL: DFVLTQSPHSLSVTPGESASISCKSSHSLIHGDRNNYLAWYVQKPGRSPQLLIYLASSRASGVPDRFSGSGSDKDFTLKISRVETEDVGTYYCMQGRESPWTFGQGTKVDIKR is ____.
1.47
